target entity: T1, human PD-L1 (human, UniProt Q9NZQ7 19-238, limits assumed)
T1 construct: also called hPD-L1
T1 sequence (Q9NZQ7 19-238 limits assumed): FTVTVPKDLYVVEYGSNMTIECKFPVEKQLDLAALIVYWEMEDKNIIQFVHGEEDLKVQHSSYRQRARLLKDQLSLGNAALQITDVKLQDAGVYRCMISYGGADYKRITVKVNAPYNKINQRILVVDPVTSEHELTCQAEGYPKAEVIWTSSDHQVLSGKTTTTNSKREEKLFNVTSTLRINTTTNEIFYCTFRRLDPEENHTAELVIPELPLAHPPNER
test: Octet-96 BLI; antigen not named, taken as human PD-L1
property label: pKd
FYI, pKd means -log10 of a concentration in mol per litre.

[
  {
    "binder": "BhVH3/BhVL3 (antibody, V domains shown, Humanized Clone B; constant regions (CH1-FC/CL) from the vector, expressed in 293F cells; also called humanized Clone B, Bh VH3 + Bh VL3) VH: QVQLVQSGAEVKKPGASVKVSCKTSGFTFSSSYISWVRQAPGQGLEWMGWIYAGTGGTSYNQKFTGRVTMTVDTSTSTAYMELRSLRSDDTAVYYCARHEGKYWYFDVWGQGTTVTVSS VL: DIQMTQSPSTLSASVGDRVTITCSASSSVSYVHWYQQKPGKAPKLLIYDTSNLASGVPSRFSGSGSGTEFTLTISSLQPDDFATYYCHQRSSYPWTFGGGTKVEIK",
    "pKd": 8.89
  },
  {
    "binder": "ChVH1/ChVL1 (antibody, V domains shown, Humanized Clone C; constant regions (CH1-FC/CL) from the vector, expressed in 293F cells; also called humanized Clone C, Ch VH1 + Ch VL1) VH: QVQLVQSGAEVKKPGASVKLSCTASGFNIKDTYMHWVKQRPGQGLEWIGRIDPANGNTKYDPKFQGKATITTDTSTNTAYLELSSLRSEDTAVYYCARGLGRWFAYWGQGTTVTVSS VL: DIQMTQSPSSLSASVGDRVTITCKASQDVSNAVAWYQQKPGKAPKLLIYSASNRYTGVPDRFSGSGSGTDFTFTISSLQPEDIATYYCQQHDSTPLTFGQGTKLELK",
    "pKd": 9.59
  }
]

So what's the measured pKd for this one? DhVH1/DhVL2 (antibody, V domains shown, Humanized Clone D; constant regions from the vector, 293F cells; also called humanized Clone D, Dh VH1 + Dh VL2) VH: QVQLVQSGAEVKKPGASVKVSCKASGYSFTGYTMNWVKQSHGQGLEWIGLIIPYNGGISYNQKFKDRATLTVDTSSSTAYMELSRLRSDDTAVYYCASLITTAPRDSMDYWGQGTLVTVSS VL: DIQMTQSPSSLSASVGDRVTITCRASQDISNYLNWYQQKPGKAPKLLIYYTSKLHSGVPSRFSGSGSGTDFTLTISSLQPEDIATYYCQQGDALPWTFGGGTKVEIK
7.91

Attribution: patent US20230340142A1
